RUN DESCRIPTION: titratable acidity of calcium sources
Type: physicochemical
CONDITION INFO: pH 3.5 raised to pH 8.3, 40 g sample
Structures can show the parent of a compound that is named as a salt.
READOUT KIND: Titratable acidity

Some compounds with recorded Titratable acidity:
COMPOUND: CC(O)C(=O)O (stereo not drawn) [Calcium Lactate, calcium lactate]
Titratable acidity: 47.1 mL of 0.1N NaOH

COMPOUND: O=C(O)CC(O)(CC(=O)O)C(=O)O [Calcium Citrate, calcium citrate]
Titratable acidity: 57.5 mL of 0.1N NaOH

COMPOUND: [Ca+2].[Cl-].[Cl-] [Calcium Chloride, calcium chloride]
Titratable acidity: 0.7 mL of 0.1N NaOH

COMPOUND: O=C(O)O [Calcium Carbonate, calcium carbonate]
Titratable acidity: 61.4 mL of 0.1N NaOH

// each listed compound needs a value for Titratable acidity
1. [Ca+2].[OH-].[OH-] [Calcium Hydroxide, calcium hydroxide]
2. O=P([O-])([O-])[O-].O=P([O-])([O-])[O-].[Ca+2].[Ca+2].[Ca+2] [Tricalcium Phosphate, tricalcium phosphate]

1: 60.6 mL of 0.1N NaOH; 2: 48.6 mL of 0.1N NaOH
